Sourced from ChEMBL document CHEMBL2321705

- Test system: Plasmodium falciparum
- experiment: Antimalarial activity against Plasmodium falciparum 3D7 assessed as inhibition of parasite growth
- Assay type: functional, organism-based
measuredEndpoint: log10(EC50) (log10 of the value in µg/mL)
// stored as log10 of EC50 expressed in µg/mL

Inquiry: For the compound CN(C)c1ccc(NC(=O)Nc2cc(C(F)(F)F)ccc2Oc2ccc(Cl)cc2Cl)cc1 , give its reported log10(EC50).
Reply text: 0.15

Inquiry: For the compound O=C(Nc1cc(C(F)(F)F)cc(C(F)(F)F)c1)Nc1cc(C(F)(F)F)ccc1Oc1ccc(Cl)cc1Cl , give its reported log10(EC50).
Reply text: -1.43

Inquiry: For the compound N#Cc1ccc(NC(=O)Nc2cc(C(F)(F)F)ccc2Oc2ccc(Cl)cc2Cl)cc1 , give its reported log10(EC50).
Reply text: -0.85

Inquiry: For the compound O=C(Nc1ccc(Cc2ccccc2)cc1)Nc1cc(C(F)(F)F)ccc1Oc1ccc(Cl)cc1Cl , give its reported log10(EC50).
Reply text: -0.22

Inquiry: For the compound O=C(Nc1ccc(-c2ccccc2)cc1)Nc1cc(C(F)(F)F)ccc1Oc1ccc(Cl)cc1Cl , give its reported log10(EC50).
Reply text: -0.54

Inquiry: For the compound O=C(Nc1cc(C(F)(F)F)ccc1Oc1ccc(Cl)cc1Cl)Nc1ccccc1-c1ccccc1 , give its reported log10(EC50).
Reply text: -0.22

Inquiry: For the compound O=C(Nc1cc(C(F)(F)F)ccc1Oc1ccc(Cl)cc1Cl)Nc1cc(C(F)(F)F)ccc1N1CCCCC1 , give its reported log10(EC50).
Reply text: 0.59

Inquiry: For the compound O=C(NCc1ccco1)Nc1cc(C(F)(F)F)ccc1Oc1ccc(Cl)cc1Cl , give its reported log10(EC50).
Reply text: 0.36

###

- System: Plasmodium falciparum
- experiment: Antimalarial activity against Plasmodium falciparum 3D7 assessed as inhibition of parasite growth
- Format: functional, organism-based
With a cut-off of 1 µg/mL, any EC50 strictly below it is called MET; any EC50 meeting it or above is called NOT MET.

Inquiry: Dear colleague, could you confirm whether EC50 of O=C(Nc1ccc2c(c1)OCO2)Nc1cc(C(F)(F)F)ccc1Oc1ccc(Cl)cc1Cl falls below 1 µg/mL? Thanks.
Reply text: NOT MET

Inquiry: Dear colleague, could you confirm whether EC50 of O=C(Nc1cccc(S(=O)(=O)C(F)(F)F)c1)Nc1cc(C(F)(F)F)ccc1Oc1ccc(Cl)cc1Cl falls below 1 µg/mL? Thanks.
Reply text: MET

Inquiry: Dear colleague, could you confirm whether EC50 of CN(C(=O)N(C)c1ccc(Cl)c(C(F)(F)F)c1)c1cc(Oc2ccc(Cl)cc2Cl)cc(C(F)(F)F)c1 falls below 1 µg/mL? Thanks.
Reply text: NOT MET

Inquiry: Dear colleague, could you confirm whether EC50 of O=C(Nc1ccc(Cc2ccccc2)cc1)Nc1ccc(Oc2ccc(Cl)cc2Cl)c(C(F)(F)F)c1 falls below 1 µg/mL? Thanks.
Reply text: NOT MET

Inquiry: Dear colleague, could you confirm whether EC50 of O=C(Nc1cccc(Oc2ccccc2)c1)Nc1cc(C(F)(F)F)ccc1Oc1ccc(Cl)cc1Cl falls below 1 µg/mL? Thanks.
Reply text: MET

Inquiry: Dear colleague, could you confirm whether EC50 of O=C(Nc1ccc(Oc2ccc(Cl)cc2Cl)c(C(F)(F)F)c1)Nc1ccccc1Cc1ccccc1 falls below 1 µg/mL? Thanks.
Reply text: MET
